Assay: Oral bioavailability in rat at 30 mg/kg, po and 3 mg/kg, iv
Type: ADME, organism-based
Details: in vivo
endpoint: bioavailability (%)

INSERT INTO results (smiles_notation, endpoint, readout_value) VALUES
  ('CCOC(=O)[C@H](Cc1ccc(-c2c(OC)cnn(C)c2=O)cc1)NC(=O)c1c(Cl)cccc1Cl', 'bioavailability', 4),
  ('COc1cnn(CCO)c(=O)c1-c1ccc(C[C@H](NC(=O)OC(C)(C)C)C(=O)OCCO)cc1', 'bioavailability', 31),
  ('COc1cnn(C)c(=O)c1-c1ccc(C[C@H](NC(=O)N(C)CC(C)C)C(=O)O)cc1', 'bioavailability', 3),
  ('COc1cnn(C)c(=O)c1-c1ccc(C[C@H](NC(=O)N(C)CC(C)C)C(=O)OCCO)cc1', 'bioavailability', 14),
  ('COc1cnn(C)c(=O)c1-c1ccc(C[C@H](NC(=O)c2c(Cl)cccc2Cl)C(=O)OCCO)cc1', 'bioavailability', 7),
  ('COC(=O)[C@H](Cc1ccc(-c2c(OC)cnn(C)c2=O)cc1)NC(=O)c1c(Cl)cccc1Cl', 'bioavailability', 8),
  ('COc1cnn(CCO)c(=O)c1-c1ccc(C[C@H](NC(=O)OC(C)(C)C)C(=O)O)cc1', 'bioavailability', 1),
  ('COc1cnn(C)c(=O)c1-c1ccc(C[C@H](NC(=O)c2c(Cl)cccc2Cl)C(=O)O)cc1', 'bioavailability', 1);
